Experiment: Analysis of active substance: preservative concentration before and after storage in VI-containing polymer solution
Format: physicochemical
Details: in Polymer P7; storage 60 d at 40° C.
test readout: active-substance concentration, 60 d 40° C. (ppm)
Numeric answer only, unit ppm assumed.

Cn1sc(Cl)cc1=O [CMIT, 5-chloro-N-methylisothiazolin-3-one] ... 64
O=c1[nH]sc2ccccc12 [BIT, 1,2-benzisothiazolin-3-one] ... 72
CCCCCCCCn1sc(Cl)c(Cl)c1=O [DCOIT, dichloroctylisothiazolinone] ... 106
CCCCCCCCn1sccc1=O [OIT, octylisothiazolinone] ... 73
CCCCCCCCCCCCCCCC[N+](C)(C)Cc1ccccc1.[Cl-] [Polymer 16-BAC, cetylalkonium chloride] ... 953

So what does the record say about active-substance concentration, 60 d 40° C. for CCCCCCCCCC[N+](C)(C)CCCCCCCCCC.[Cl-] [DDAC, didecyldimethylammonium chloride] ? 938

Same read-out for Cn1sccc1=O [MIT, methyl-4-isothiazolin-3-one] ? 91
